The entries below are paired with their reported glass transition temperature.
// return the numeric value with its unit appended

Recorded glass transition temperature, per entry:
> print(dat)
                                   compound  endpoint.result
1  *c1ccc2c(c1)C(=O)N(C1CCC(CC3CCC(N4C(=O)c5ccc(C(*)(C(F)(F)F)C(F)(F)F)cc5C4=O)CC3)CC1)C2=O (repeat unit)        265.00 °C
2  *CNC(=O)OC(c1ccco1)C(OC(=O)NCc1ccc(C(C)(C)c2ccc(*)o2)o1)c1ccco1 (repeat unit)         45.00 °C
3  *CCCCCCOC(=O)NCc1ccc(CNC(=O)O*)cc1 (repeat unit)         56.00 °C
4  *Oc1ccc(CC(NC(=O)CCc2ccc(OC(=O)CCCCCCC(*)=O)cc2)C(=O)OC(C)CC)cc1 (repeat unit)         46.00 °C
5  *Oc1ccc(NC(=C(C#N)C#N)c2ccc3cc(C(Nc4ccc(*)cc4)=C(C#N)C#N)ccc3c2)cc1 (repeat unit)        280.00 °C

Could you share which glass transition temperature value was measured for *C(=O)NNC(=O)c1ccc([Si](c2ccccc2)(c2ccccc2)c2ccc(C(=O)NNC(=O)c3cncc(*)c3)cc2)cc1 (repeat unit) ? 234.00 °C

What value of glass transition temperature has been reported for the following compound? *Oc1ccc(NC(=O)c2ccc(Oc3ccc(C(C)(C)c4cccc(C(C)(C)c5ccc(Oc6ccc(C(=O)Nc7ccc(*)cc7)cc6)cc5)c4)cc3)cc2)cc1 (repeat unit) 155.00 °C

Look up glass transition temperature: *c1ccc(C(C#N)(C(=O)OCC)C(*)(C#N)C(=O)OCC)cc1 (repeat unit) 108.00 °C

Which glass transition temperature reading was recorded for the compound *CCc1ccc(*)c(Cl)c1 (repeat unit) ? 75.00 °C

Item */C=C/c1ccc(OC(=O)c2ccc(C(=O)Oc3cccc4ccc(*)nc34)cc2)cc1 (repeat unit) has what recorded glass transition temperature? 112.00 °C

Which glass transition temperature reading was recorded for the compound */C=C/C1CC(*)C2C(=O)N(c3ccccc3)C(=O)C12 (repeat unit) ? 220.00 °C

* * *

The following molecules are listed with their measured glass transition temperature values.
Only the number, expressed in °C, is required.

Data request, read-out glass transition temperature, for *c1ccc(Oc2ccc(-c3ccc(Oc4ccc(N5C(=O)c6ccc(Oc7ccc(Oc8ccc9c(c8)C(=O)N(*)C9=O)cc7)cc6C5=O)cc4)cc3)cc2)cc1 (repeat unit) 230.00

Item *CC(C[N-][N+]#N)O* (repeat unit) has what recorded glass transition temperature? -35.00

Any idea what its glass transition temperature is? The molecule is *c1ccc(-c2ccc3nc(Oc4cc(-c5ccccc5)c5cc(*)ccc5n4)cc(-c4ccccc4)c3c2)cc1 (repeat unit) 300.00

glass transition temperature for *c1ccc(-c2ccc(C(*)(C(F)(F)F)C(F)(F)F)cc2)cc1 (repeat unit) ? 264.00

* * *

# glass transition temperature per entry
Response body: numeric value in °C, unit text excluded.

# example entries with known answers
compound	readout-type	endpoint-result
*CC(*)c1ccccc1COCCCC (repeat unit)	glass transition temperature	67.00
*CC(*)C(=O)OCCCSCCC#N (repeat unit)	glass transition temperature	-58.00
*Oc1ccc(C2(c3ccc(OC(=O)c4ccc(C(*)=O)cc4)cc3)CCC(C(C)(C)C)CC2)cc1 (repeat unit)	glass transition temperature	210.00

Now for a further compound.
Entry *CC(*)C(=O)OCCCCCCCCCCCCOC(=O)c1ccc(OC(=O)c2ccc(C#N)cc2)cc1 (repeat unit) : reported glass transition temperature = ? 15.00

* * *

readout-type: glass transition temperature (°C)
Report the value in °C with no unit label.

Examples with their reported glass transition temperature follow.
molecule	endpoint-result
*CC(O)COC(=O)CCCCCCCCC(=O)OCC(O)COc1ccc(C(C)(C)c2ccc(O*)cc2)cc1 (repeat unit)	30.00
*CC/C=C(/*)Cl (repeat unit)	-48
*O[Si](*)(C)CCCOc1ccc(C(=O)Oc2ccc(-c3ccc(OC(=O)c4cc(OCC)c(OCC)c(OCC)c4)cc3)cc2)cc1 (repeat unit)	61.30
*Oc1cccc(OC(=O)c2ccc(C(C)(C)c3ccc(C(*)=O)cc3)cc2)c1 (repeat unit)	158.00
*c1ccc2c(c1)C(=O)N(c1ccccc1Oc1ccc(N3C(=O)c4ccc(C(*)(C(F)(F)F)C(F)(F)F)cc4C3=O)cc1)C2=O (repeat unit)	276.00
*C(=O)c1ccc2ncc(-c3ccc(-c4cnc5ccc(*)cc5n4)cc3)nc2c1 (repeat unit)	318.00
*CC(*)c1ccccc1COCc1ccccc1 (repeat unit)	72.00
*C(=O)Nc1ccc(Cc2ccc(NC(=O)c3ccc4c(c3)C(=O)N(c3ccc(/N=N/c5ccc(C)cc5)c(N5C(=O)c6ccc(*)cc6C5=O)c3)C4=O)c(C)c2)cc1C (repeat unit)	257.00

Which glass transition temperature is reported for this molecule? *Oc1ccc(Oc2ccc(C(=O)Nc3ccc(Oc4ccc(S(=O)(=O)c5ccc(Oc6ccc(NC(=O)c7ccc(*)cc7)cc6)cc5)cc4)cc3)cc2)cc1 (repeat unit) 220.00

Request the reported glass transition temperature associated with *Oc1ccc(C(=O)Nc2ccc(C(c3ccc(NC(=O)c4ccc(*)cc4)cc3)(P3(=O)Oc4ccccc4-c4ccccc43)P3(=O)Oc4ccccc4-c4ccccc43)cc2)cc1 (repeat unit) 243.00

# query: glass transition temperature of entry *c1ccc(Oc2ccc(S(=O)(=O)c3ccc(Oc4ccc(-c5c6c(c(*)c7ccccc57)C(=O)N(c5cccc(C(F)(F)F)c5)C6=O)cc4)cc3)cc2)cc1 (repeat unit) 280.50

Query: glass transition temperature; subject: *CCN(*)C(=O)c1ccc(F)c(F)c1 (repeat unit) 101.00

Value lookup for glass transition temperature; key = *c1cccc(OCCCCCOc2cccc(N3C(=O)c4ccc(-c5cccc6c5C(=O)N(*)C6=O)cc4C3=O)c2)c1 (repeat unit) 168.00

Dear colleague, I am looking for the recorded glass transition temperature of the following molecule: *c1ccc(Oc2ccc(NC(=O)CN3C(=O)c4ccc(C(c5ccc6c(c5)C(=O)N(CC(=O)Nc5ccc(Oc7ccc(-c8nnc(*)o8)cc7)cc5)C6=O)(C(F)(F)F)C(F)(F)F)cc4C3=O)cc2)cc1 (repeat unit) 263.00

Fill in: glass transition temperature of *OP(=O)(Oc1ccc(C)cc1)Oc1c(Br)cc(C(c2cc(Br)c(*)c(Br)c2)(C(F)(F)F)C(F)(F)F)cc1Br (repeat unit) is ___ 146.00

Value lookup for glass transition temperature; key = *c1ccc2c(c1)C(=O)N(c1cccc(C(F)(F)C(F)(F)C(F)(F)c3cccc(N4C(=O)c5ccc(C(F)(F)C(F)(F)C(F)(F)C(F)(F)C(F)(F)C(F)(F)C(*)(F)F)cc5C4=O)c3)c1)C2=O (repeat unit) 133.50

Fill in: glass transition temperature of *c1ccc(Oc2ccc(-c3ccc(Oc4ccc(N5C(=O)c6ccc(Oc7c(C)cc(Cc8cc(C)c(Oc9ccc%10c(c9)C(=O)N(*)C%10=O)c(C)c8)cc7C)cc6C5=O)cc4)cc3)cc2)cc1 (repeat unit) is ___ 248.00

Request the reported glass transition temperature associated with *O[Si](*)(C)CCc1cc(C(=O)Oc2ccc(OC)cc2)ccc1C(=O)Oc1ccc(OC)cc1 (repeat unit) 111.00

Value lookup for glass transition temperature; key = *c1ccc(/C=C(\C#N)C(=O)NC2CCCCC2NC(=O)/C(C#N)=C/c2ccc(N(c3ccccc3)c3ccc(N(*)c4ccccc4)cc3)cc2)cc1 (repeat unit) 239.00

Recorded glass transition temperature of *CC(*)c1ccccc1C(=O)Oc1ccccc1 (repeat unit) , please. 124.00

Field request: glass transition temperature | item: *c1ccc2oc3ccc(S(*)(=O)=O)cc3c2c1 (repeat unit) 360.00

Return reported glass transition temperature; argument: *c1cccc(N2C(=O)c3ccc(C(c4ccc5c(c4)C(=O)N(c4cccc(N6C(=O)c7ccc(-c8ccc9c(c8)C(=O)N(*)C9=O)cc7C6=O)c4)C5=O)(C(F)(F)F)C(F)(F)F)cc3C2=O)c1 (repeat unit) 308.00

Would you kindly share the measured glass transition temperature for *c1ccc(-c2ccc(N3C(=O)c4ccc(-c5cccc6c5C(=O)N(*)C6=O)cc4C3=O)cc2C)c(C)c1 (repeat unit) ? 372.00

Param item = */C=C(/*)CCCOc1ccc(OC(=O)c2ccc(OCCCC)cc2)cc1 (repeat unit) ; retrieve measured glass transition temperature. 36.00

Give its glass transition temperature value. Item: *CC(COc1ccc(C(C)(C)c2ccc(O*)cc2)cc1)OC(C)=O (repeat unit) 60.00

What measured glass transition temperature goes with *C[Si](*)(C)CCCN(CC)CC (repeat unit) ? -31.7

I am curious: what glass transition temperature value has been reported for *Oc1ccc2c(c1)C1(CC2(C)C)CC(C)(C)c2ccc(OC(=O)c3cccc(C(*)=O)c3)cc21 (repeat unit) ? 245.00

* * *

Documented glass transition temperature across a set of compounds

Here's what some known entries look like.
compound	glass transition temperature
*c1ccc2c(c1)C(=O)N(c1cc(N3C(=O)c4ccc(*)cc4C3=O)cc(C(F)(F)F)c1)C2=O (repeat unit)	329.00 °C
*C(=O)c1cccc(Cc2ccc3c(c2)C(=O)N(c2cc(N4C(=O)c5ccc(*)cc5C4=O)cc(C(F)(F)F)c2)C3=O)c1 (repeat unit)	253.00 °C
*Oc1cccc(Oc2ccc(Oc3ccc4c(c3)C(=O)N(c3cccc(N5C(=O)c6ccc(*)cc6C5=O)c3)C4=O)cc2)c1 (repeat unit)	227.00 °C
*c1ccc(Oc2ccc(C(C)(C)c3ccc(Oc4ccc(-n5c(=O)c6cc7c(=O)n(*)c(=O)c7cc6c5=O)cc4)cc3)cc2)cc1 (repeat unit)	283.00 °C
*c1ccc(-c2ccc(N3C(=O)c4cc5c(cc4C3=O)C(C(F)(F)F)(C(F)(F)F)c3cc4c(cc3O5)C(=O)N(*)C4=O)cc2OC(C)(F)F)c(OC(C)(F)F)c1 (repeat unit)	363.00 °C

Now, please, on to the next compound.
# query: glass transition temperature of entry *Sc1cccc2c1C(=O)N(c1cc(Cc3ccc(N4C(=O)c5cccc(*)c5C4=O)c(C)c3)ccc1C)C2=O (repeat unit) 274.00 °C

From: the PolyMetriX glass transition set
